Test system: MCF7
Test: NCI tumour cell line growth inhibition, 48 h
Active and inactive are the calls of the source. No stated cut-off is given here; in the data, active = GI50 up to about 1.1 µM and inactive = higher.
Classes to choose from: t (active), f (inactive)

Qu. Per the records of this test, what outcome belongs to `CC(C)(O)CCc1ccc(O)c2c(=O)c3c(O)c4c(cc3oc12)O[C@H]1OC=C[C@@]41O` ?
Ans. t

Qu. Per the records of this test, what outcome belongs to `COc1ccc2c(c1)c1c(n2CCN2CCCCC2)-c2cccc(OC)c2CC1` ?
Ans. f

Qu. Per the records of this test, what outcome belongs to CC(=O)C1COC(O)C1C (centres undefined) ?
Ans. f

Qu. Per the records of this test, what outcome belongs to `COc1ccc(/C(Cl)=C(\C=O)c2ccc([N+](=O)[O-])cc2)cc1OC` ?
Ans. f

Qu. Per the records of this test, what outcome belongs to CCCC(=O)Nc1cc(/C=C/C(=O)N2CC(CCl)c3c2cc(O)c2[nH]cc(C)c32)n(C)c1 (centres undefined) ?
Ans. t

Qu. Per the records of this test, what outcome belongs to `O=c1c2cc([N+](=O)[O-])ccc2n2n1Cc1ccccc1C2` ?
Ans. f

Qu. Per the records of this test, what outcome belongs to `CCN(CC)CCCNc1c2cc(OC)ccc2nc2cccc([N+](=O)[O-])c12` ?
Ans. t

Qu. Per the records of this test, what outcome belongs to `CO/C(=N\N=C\c1ccc(Cl)cc1Cl)c1ccncc1` ?
Ans. f

Qu. Per the records of this test, what outcome belongs to `COc1ccc2nc(-c3ccccc3)c(=O)[nH]c2c1` ?
Ans. f

Qu. Per the records of this test, what outcome belongs to COc1cc2cc(C(=O)N3CC(CCl)c4ccc([N+](C)(C)Cc5ccc([N+](=O)[O-])cc5)cc43)[nH]c2c(OC)c1OC (centres undefined) ?
Ans. f

Qu. Per the records of this test, what outcome belongs to `Clc1ccc(CCNC2(c3cc4ccccc4s3)CCCCC2)cc1Cl` ?
Ans. f

Qu. Per the records of this test, what outcome belongs to `CCSc1[nH]c(Nc2nc(-c3ccccc3)n(-c3ccccc3)n2)c(C(N)=O)c1C(N)=O` ?
Ans. f

Qu. Per the records of this test, what outcome belongs to `Cc1ccnc(NS(=O)(=O)c2ccc(N=[N+]=[N-])cc2)n1` ?
Ans. f

Qu. Per the records of this test, what outcome belongs to CCCCc1cc2c(cc1O)CCC1C2CC[C@@]2(C)C1CC[C@@H]2O (some centres undefined) ?
Ans. f

Qu. Per the records of this test, what outcome belongs to `O=C(/C=C/c1ccccc1)CCN1CCOCC1` ?
Ans. f

Qu. Per the records of this test, what outcome belongs to CNc1ccc(C(=O)CC(O)CCC(C)C2OC(=O)CC(O)CC(=O)CC(O)CC(O)CC(O)CC(O)CC3(O)CC(O)C(C(=O)NCCN(C)C)C(CC(OC4OC(C)C(O)C(NC(=O)CN5CCN(C)CC5)C4O)\C=C/C=C\C=C/C=C/C=C/C=C\C=C/C2C)O3)cc1 (centres undefined) ?
Ans. f

Qu. Per the records of this test, what outcome belongs to O=C1C2SC34c5c2c2ccccc2n5CCC3CCCN14 (centres undefined) ?
Ans. f

Qu. Per the records of this test, what outcome belongs to CCOC(=O)C1=NN(c2ccc(C)cc2)C2(c3ccccc3)C=C(c3ccccc3)N(C)CCN12 (centres undefined) ?
Ans. f

Qu. Per the records of this test, what outcome belongs to `CN(C)/C=N/S(=O)(=O)c1nn2c(C=O)c(-c3ccc(Cl)cc3)nc2s1` ?
Ans. t
